Data credit: patent US20240398962A1

Experiment: Liver homogenate stability (compound disappearance by LC-MS/MS)
Type: in vitro ADME
Conditions: 20 μm, 37° C.
Would you mind telling me the reported Liver homogenate stability (% remaining at 1 h incubation) of each entry?
Give bare numbers, in %.

Quick one: give me Liver homogenate stability (% remaining at 1 h incubation) for each item below, same order please.
1. CC(C)OC(=O)[C@H](CCC(=O)C=[N+]=[N-])NP(=O)(OCCCCN)Oc1ccccc1 (stereo partly shown) [I]
2. CC(C)C[C@H](NC(=O)CCOCCOCCN)C(=O)N[C@@H](CCC(=O)C=[N+]=[N-])C(=O)OC(C)C [IV]
3. CC(C)C[C@H](NC(=O)COCCN)C(=O)N[C@@H](CCC(=O)C=[N+]=[N-])C(=O)OC(C)(C)C [II]
4. CC(C)C[C@H](NC(=O)OCC1c2ccccc2-c2ccccc21)C(=O)N[C@@H](CCC(=O)C=[N+]=[N-])C(=O)N[C@@H](Cc1ccccc1)C(=O)NCCOCCOCCOCCC(=O)O [VII]

[reply]
32
0
94
0

Quick one: give me Liver homogenate stability (% remaining at 1 h incubation) for each item below, same order please.
1. CC(C)C[C@H](NC(=O)CCOCCOCCN)C(=O)N[C@@H](CCC(=O)C=[N+]=[N-])C(=O)OC(C)(C)C [III]
2. CC(C)C[C@H](NC(=O)OCC1c2ccccc2-c2ccccc21)C(=O)N[C@@H](CCC(=O)C=[N+]=[N-])C(=O)N[C@@H](Cc1ccccc1)C(=O)NCCOCCOCCOCCOCCC(=O)O [VI]
3. CC(C)C[C@H](NC(=O)COCCN)C(=O)N[C@@H](CCC(=O)C=[N+]=[N-])C(=O)OC(C)C [V]

[reply]
79
12
17
